Reference source: patent US20240207422A1

# Test system: excised human nerve tissue
# ASSAY_NOTES: Phage display selection on excised human nerve tissue (Nerve2, Nerve3), NextGen sequence counts
# Format: binding
# MEASUREMENT_CONTEXT: unique sequence count (relative enrichment); Nerve3 only
Is Count at least 200? Then criterion met. If not, criterion not met.

{"SUBSTANCE": "367 (QFQWQELLNVVKDS) [compound 367]", "ASSIGNED_LABEL": "criterion met"}
{"SUBSTANCE": "373 (HVRWGEPSYVLKNF) [compound 373]", "ASSIGNED_LABEL": "criterion met"}
{"SUBSTANCE": "376 (QLPWEVPYSVVRQS) [compound 376]", "ASSIGNED_LABEL": "criterion met"}
{"SUBSTANCE": "445 (QLRVKLQYDVIANN) [compound 445]", "ASSIGNED_LABEL": "criterion not met"}
{"SUBSTANCE": "433 (QASSEAPSYPVVKS) [compound 433]", "ASSIGNED_LABEL": "criterion not met"}
{"SUBSTANCE": "386 (QFQLDQSYYSFNTL) [compound 386]", "ASSIGNED_LABEL": "criterion met"}
{"SUBSTANCE": "383 (DVPFEHSYYGEQQY) [compound 383]", "ASSIGNED_LABEL": "criterion met"}
{"SUBSTANCE": "380 (QFTSEETHYVVNKS) [compound 380]", "ASSIGNED_LABEL": "criterion met"}
{"SUBSTANCE": "412 (QVQWQVPYYVVKKP) [compound 412]", "ASSIGNED_LABEL": "criterion not met"}
{"SUBSTANCE": "396 (QIVLNAPYYVVKTS) [compound 396]", "ASSIGNED_LABEL": "criterion not met"}
{"SUBSTANCE": "423 (HLLGDYRFWAFTNA) [compound 423]", "ASSIGNED_LABEL": "criterion not met"}
{"SUBSTANCE": "407 (HVWWEDPYYVVRKT) [compound 407]", "ASSIGNED_LABEL": "criterion not met"}
{"SUBSTANCE": "428 (QIPLEEMYYVVRTY) [compound 428]", "ASSIGNED_LABEL": "criterion not met"}
{"SUBSTANCE": "442 (QFPSAETYRIVKKF) [compound 442]", "ASSIGNED_LABEL": "criterion not met"}
{"SUBSTANCE": "374 (QGQTETHSHDAKRY) [compound 374]", "ASSIGNED_LABEL": "criterion met"}
{"SUBSTANCE": "403 (QFPQGEAGYIAKSF) [compound 403]", "ASSIGNED_LABEL": "criterion not met"}
{"SUBSTANCE": "384 (EFLGEAPYYVVSRS) [compound 384]", "ASSIGNED_LABEL": "criterion met"}
{"SUBSTANCE": "437 (QVPYGQSFVVGTSS) [compound 437]", "ASSIGNED_LABEL": "criterion not met"}
{"SUBSTANCE": "400 (RLPQHESYIVGKIS) [compound 400]", "ASSIGNED_LABEL": "criterion not met"}
{"SUBSTANCE": "439 (HVAWKAPYHFTKNS) [compound 439]", "ASSIGNED_LABEL": "criterion not met"}
{"SUBSTANCE": "401 (RVYWIDPYYIVNES) [compound 401]", "ASSIGNED_LABEL": "criterion not met"}
{"SUBSTANCE": "446 (QVPAREPNHIVKKS) [compound 446]", "ASSIGNED_LABEL": "criterion not met"}
{"SUBSTANCE": "358 (QDVWAEPYYAGKQP) [compound 358]", "ASSIGNED_LABEL": "criterion met"}
{"SUBSTANCE": "375 (QLRFEGPDNPGVQS) [compound 375]", "ASSIGNED_LABEL": "criterion met"}
